# Species on record: Rattus norvegicus
# Assay Details: Open TG-GATES - Regimen: Single
# Assay type: toxicity, organism-based, Sprague-Dawley
# Design: regimen Single, gender Male, age 6 weeks
# Stated Conditions: in vivo, po, 0 mg/kg, 6 h, tissue Plasma, route gavage, dose level Control
Readout Kind: LDH (IU/L)

{"Molecule": "S=C=Nc1cccc2ccccc12 [1-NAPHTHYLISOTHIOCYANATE]", "Value": 167.6}
{"Molecule": "Cc1cccc(Nc2cc(Cl)nc(SCC(=O)O)n2)c1C", "Value": 69.2}
{"Molecule": "Cc1cnc(NC(=O)C2=C(O)c3ccccc3S(=O)(=O)N2C)s1", "Value": 153}
{"Molecule": "O=C1CN(/N=C/c2ccc(-c3ccc([N+](=O)[O-])cc3)o2)C(O)=N1", "Value": 82.2}
{"Molecule": "Cn1cnc([N+](=O)[O-])c1Sc1ncnc2nc[nH]c12", "Value": 254.6}
{"Molecule": "C=CCO", "Value": 195.6}
{"Molecule": "COc1ccc(O)c(C(C)(C)C)c1.COc1ccc(O)cc1C(C)(C)C [BUTYLATED HYDROXYANISOLE]", "Value": 54.8}
{"Molecule": "CS(=O)(=O)Nc1ccc([N+](=O)[O-])cc1Oc1ccccc1 [NIMESULIDE]", "Value": 62.6}
{"Molecule": "O=C1NC(=O)C(c2ccccc2)(c2ccccc2)N1", "Value": 96.2}
{"Molecule": "COc1ccc(Cl)cc1C(=O)NCCc1ccc(S(=O)(=O)NC(=O)NC2CCCCC2)cc1 [GLYBURIDE]", "Value": 159.4}

---

MCV by entry:
# Organism: Rattus norvegicus
# Assay Details: Open TG-GATES - Regimen: Single
# Assay type: toxicity, organism-based, Sprague-Dawley
# Design: regimen Single, gender Male, age 6 weeks
# Stated Conditions: in vivo, po, 0 mg/kg, 3 h, tissue Blood, route gavage, dose level Control
Readout Kind: MCV (fL)

{"Compound": "CS(=O)(=O)Nc1ccc([N+](=O)[O-])cc1Oc1ccccc1 [NIMESULIDE]", "Unit Name": "fL", "Value": 64.2}
{"Compound": "Cc1cnc(NC(=O)C2=C(O)c3ccccc3S(=O)(=O)N2C)s1", "Unit Name": "fL", "Value": 62.3}
{"Compound": "Cc1cccc(Nc2cc(Cl)nc(SCC(=O)O)n2)c1C", "Unit Name": "fL", "Value": 63.3}
{"Compound": "S=C=Nc1cccc2ccccc12 [1-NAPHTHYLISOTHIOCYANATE]", "Unit Name": "fL", "Value": 61}
{"Compound": "Cn1cnc([N+](=O)[O-])c1Sc1ncnc2nc[nH]c12", "Unit Name": "fL", "Value": 64.5}
{"Compound": "COc1ccc(Cl)cc1C(=O)NCCc1ccc(S(=O)(=O)NC(=O)NC2CCCCC2)cc1 [GLYBURIDE]", "Unit Name": "fL", "Value": 64.7}
{"Compound": "O=C1NC(=O)C(c2ccccc2)(c2ccccc2)N1", "Unit Name": "fL", "Value": 62.2}
{"Compound": "C=CCO", "Unit Name": "fL", "Value": 60.8}
{"Compound": "O=C1CN(/N=C/c2ccc(-c3ccc([N+](=O)[O-])cc3)o2)C(O)=N1", "Unit Name": "fL", "Value": 66.2}
{"Compound": "COc1ccc(O)c(C(C)(C)C)c1.COc1ccc(O)cc1C(C)(C)C [BUTYLATED HYDROXYANISOLE]", "Unit Name": "fL", "Value": 62.4}
